- measured-on: hM2 receptor (Homo sapiens, UniProt P08172)
- Construct: expressed in transfected cells
- Sequence (P08172 whole entry): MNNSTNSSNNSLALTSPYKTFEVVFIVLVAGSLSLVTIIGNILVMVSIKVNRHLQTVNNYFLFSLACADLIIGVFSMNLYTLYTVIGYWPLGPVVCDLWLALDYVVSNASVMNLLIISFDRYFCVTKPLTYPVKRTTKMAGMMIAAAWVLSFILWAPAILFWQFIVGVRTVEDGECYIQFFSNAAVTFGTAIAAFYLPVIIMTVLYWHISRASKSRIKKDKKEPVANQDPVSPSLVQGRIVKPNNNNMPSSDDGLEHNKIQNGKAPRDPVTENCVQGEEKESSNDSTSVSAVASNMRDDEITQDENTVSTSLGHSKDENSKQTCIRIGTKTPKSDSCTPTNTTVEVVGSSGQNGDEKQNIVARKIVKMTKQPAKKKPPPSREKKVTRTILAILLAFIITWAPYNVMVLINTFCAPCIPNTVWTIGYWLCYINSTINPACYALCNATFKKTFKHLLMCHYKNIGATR
- assay-info: Blockade of agonist-mediated [35S]GTPγS binding
- Format: biochemical
- assay-setup: CHO-K1 cells expressing the hM2 receptor; read-out: Ki for blockade of oxotremorine-stimulated [35S]GTPγS binding
quantity-kind: Ki

| record-smiles | measured-on | quantity-kind | value-reported |
| --- | --- | --- | --- |
| CNCCCCCCCCN1CC[C@@H](C(C(N)=O)(c2ccccc2)c2ccccc2)C1 | hM2 receptor (Homo sapiens, UniProt P08172) | Ki | < 5 nM |

====

- measured-on: hM3 muscarinic receptor subtype (Homo sapiens)
- Construct: expressed in transfected cells
- Sequence (P20309 whole entry): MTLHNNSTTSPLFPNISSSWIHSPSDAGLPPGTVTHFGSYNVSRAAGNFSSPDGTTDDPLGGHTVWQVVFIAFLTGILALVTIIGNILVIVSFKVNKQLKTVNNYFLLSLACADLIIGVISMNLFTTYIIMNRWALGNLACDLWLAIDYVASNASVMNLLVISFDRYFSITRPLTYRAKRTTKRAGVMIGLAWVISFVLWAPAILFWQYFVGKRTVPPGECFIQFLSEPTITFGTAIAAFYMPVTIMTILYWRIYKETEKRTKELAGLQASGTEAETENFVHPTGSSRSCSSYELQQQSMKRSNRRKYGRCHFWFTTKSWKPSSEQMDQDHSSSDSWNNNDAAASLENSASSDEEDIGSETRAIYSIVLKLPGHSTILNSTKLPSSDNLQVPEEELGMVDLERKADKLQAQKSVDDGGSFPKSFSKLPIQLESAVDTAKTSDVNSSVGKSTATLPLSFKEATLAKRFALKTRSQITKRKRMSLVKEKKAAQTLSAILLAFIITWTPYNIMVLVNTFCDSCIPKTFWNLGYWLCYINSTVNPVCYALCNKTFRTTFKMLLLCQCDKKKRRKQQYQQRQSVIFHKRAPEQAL
- assay-info: Radioligand binding assay ([3H]-NMS displacement), hM3
- assay-setup: ratio of hM3 Ki values
quantity-kind: Δ hM3: change in binding affinity relative to compound of the invention

| compound | measured-on | value-reported |
| --- | --- | --- |
| CNCCCCCCCCCN1CC[C@@H](C(C(N)=O)(c2ccccc2)c2ccccc2)C1 [Example 14] | hM3 muscarinic receptor subtype (Homo sapiens) | ×37 |
| CNCCCCCCCCN1CC[C@@H](C(C(N)=O)(c2ccccc2)c2ccccc2)C1 [Example 1] | hM3 muscarinic receptor subtype (Homo sapiens) | ×2.6 |
| CN(C)CCCCCCCCN1CC[C@@H](C(C(N)=O)(c2ccccc2)c2ccccc2)C1 [Comp. Ex. A, reference compound] | hM3 muscarinic receptor subtype (Homo sapiens) | ×52 |
| NC(=O)C(c1ccccc1)(c1ccccc1)[C@@H]1CCN(CCCCCCCCNCCO)C1 [Example 8] | hM3 muscarinic receptor subtype (Homo sapiens) | ×14 |
